measuredQuantity: melting point

compound	measuredQuantity	result
CN1C(=O)[C@H](NC(=O)CCc2ccc(Cl)cc2Cl)N=C(c2ccccc2)c2cc(N)ccc21	melting point	179 to 180 °C
Cc1cc(O)ccc1N1CCc2c1c1cccc(C)c1[nH]c2=O	melting point	244 to 246 °C
CCn1c2ccccc2c2cc(NC(=O)c3ccccc3C(F)(F)F)ccc21	melting point	206 to 207 °C
CC(N(CC(=O)O)C(=O)c1ccc(C(F)(F)F)cc1)C(O)(Cn1cncn1)c1ccc(C(F)(F)F)cc1 (stereo not given)	melting point	201 to 204 °C
CN(Cc1cccc2c1C(=O)N(C1CCC(=O)NC1=O)C2=O)C(=O)c1ccco1 (stereo not given)	melting point	184 to 186 °C

Request: Look up melting point: COC(=O)c1ccc(SC#N)c([N+](=O)[O-])c1
Result: 93 to 96 °C

Request: Same thing, different compound: COc1ccc(-c2nc3cc(F)ccc3s2)cc1OC(=O)c1ccccc1
Result: 160 °C

Request: # iterate: N#CNC(=O)[C@H](Cc1ccccc1)NC(=O)[C@@H]1CCC(=O)N1
Result: 163 to 165 °C

Request: Then CC(C)OCC1(C(C)(F)F)c2cc(C#N)ccc2Nc2ncccc21 (stereo not given) ?
Result: 134 to 135 °C

Request: Cc1cc(Cl)ccc1-n1nc(O)c2c(=O)c3ccc(Cl)cc3[nH]c2c1=O , same question.
Result: 336 to 339 °C

Request: Also, CNC(=O)NCCSCc1ccccn1 please.
Result: 63 to 66 °C
